# Study system: Aldo-keto reductase family 1 member A1 (Bos taurus)
# Assay summary: Evaluated for inhibition of Aldehyde reductase 1
pIC50: −log10 of the molar value.
Observed property: pIC50

I = Cc1cc(C)c2c(c1)-c1nn(CC(=O)O)c(=O)cc1CC2
II = O=C(O)Cn1nc2c(c(C(=O)O)c1=O)CCc1ccccc1-2
Compare I and II by numeric pIC50 and name the larger one. Kindly state the label of the option you pick.
II

A = O=C(O)Cn1nc2c(cc1=O)CCc1ccccc1-2
B = Cc1cc(C)c2c(c1)-c1nn(CCC(=O)O)c(=O)cc1CC2
# min-compare on pIC50 between A and B Kindly state the label of the option you pick.
B
(B: 3.54, A: 3.81)

====

# Study system: Aldo-keto reductase family 1 member A1 (Bos taurus)
# Assay summary: Evaluated for inhibition of Aldehyde reductase 1
Observed property: IC50 (µM)

{"Smiles structure": "O=C(O)Cn1nc2c(cc1=O)Cc1ccccc1-2", "Meas value": 107}

a = O=C(O)Cn1nc2c(c(C(=O)O)c1=O)Cc1ccccc1-2
b = O=C(O)CCCn1nc2c(cc1=O)CCc1ccccc1-2
Compare a and b by numeric IC50 and name the larger one. Kindly state the label of the option you pick.
a

These entries and their values trace back to BindingDB's records for doi:10.1021/jm960124f.
